Ref: paper PMC7651685

assay: Plasma levels of DAS or MPH during the displacement studies; format: in vivo, rhesus macaques (Macaca mulatta); settings: rhesus monkey, plasma, iv, 0.1 mg/kg, MPH 0.1 mg/kg i.v. 3 min bolus; group mean; read-out: Cmax, Mean ± SD

[
  {
    "COMPOUND": "COC(=O)C(c1ccccc1)C1CCCCN1 (racemic) [MPH, reference compound]",
    "Cmax": "169 ng/mL"
  }
]

====

assay: Plasma levels of DAS or MPH during the displacement studies; type: in vivo, rhesus macaques (Macaca mulatta); settings: rhesus monkey, plasma, iv, 0.1 mg/kg, DAS 0.1 mg/kg i.v. 3 min bolus; group mean; read-out: Cmax, Mean ± SD

[
  {
    "CHEMICAL STRING": "N[C@@H]1CC[C@@H](c2ccc(Cl)c(Cl)c2)c2ccccc21",
    "Cmax / ng/mL": 71.9
  }
]

====

assay: Plasma levels of DAS or MPH during the displacement studies; type: in vivo, rhesus macaques (Macaca mulatta); conditions: rhesus monkey, plasma, iv, 0.5 mg/kg, MPH 0.5 mg/kg i.v. 3 min bolus; group mean; read-out: Cmax, Mean ± SD
RECORDED ENDPOINT: Cmax (ng/mL)

[
  {
    "MOLECULE": "COC(=O)C(c1ccccc1)C1CCCCN1 (racemic) [MPH, reference compound]",
    "READOUT UNIT": "ng/mL",
    "RECORDED RESULT": 823
  }
]
